Test system: MOLM14
method.notes: cell viability relative to vehicle control; higher = less cytotoxic;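 also: after 48 h exposure read by CellTiter-Glo luminescence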
reported.conditions: 10 µM; SRSF2 genotype: SRSF2 wt/wt
Exercise: state measured cell viability for each of the molecules provided.
Numbers only, in %.

Guide cases for cell viability, answers given:
COc1ccc(C2=NC(c3ccc(Cl)cc3)C(c3ccc(Cl)cc3)N2C(=O)N2CCNC(=O)C2)c(OC(C)C)c1 (stereo not given)    86.7
Cc1cnc(C(=O)O)c[n+]1[O-]    101
Cc1ccc(NC(=O)c2ccc(CN3CC[C@H](N(C)C)C3)c(C(F)(F)F)c2)cc1Nc1nccc(-c2cncnc2)n1    49
C[C@@H]1CC(=O)NN=C1c1ccc(NN=C(C#N)C#N)cc1    81.7

Hi team, please reply with cell viability for each item in this list.
1. C[C@H]1[C@H](C)CC[C@]2(C(=O)O)CC[C@]3(C)C(=CC[C@@H]4[C@@]5(C)CCC(=O)C(C)(C)[C@@H]5CC[C@]43C)[C@H]12
2. NC[C@H](O)c1ccc(O)c(O)c1 [Noradrenaline bitartrate monohydrate (Levoph]
3. NCCCC[C@@H]1NC(=O)[C@@H](Cc2ccc(O)cc2)NC(=O)[C@H](CC(=O)O)NC(=O)CNC(=O)[C@H](CCCN=C(N)N)NC1=O [Cyclo(RGDyK)]
4. NNC(=O)c1ccncc1.Nc1ccc(C(=O)O)c(O)c1

1. 19.4
2. 93.7
3. 90.9
4. 108

----------
Tested on: MARIMO
method.notes: cell viability relative to vehicle control; higher = less cytotoxic
reported.conditions: 10 µM; SRSF2 genotype: SRSF2 P95H/wt
Kindly state cell viability for each of the entries shown.

See these solved cases before continuing.
C=C1C2CCC3C2C(C)(C)CCCC13C (single isomer, unassigned; (+)) [(+)-Longifolene]    96.6%
CC(=O)O[C@H]1C[C@@H]2CC[C@@H]3[C@H](CC[C@@]4(C)[C@H]3C[C@H]([N+]3(C)CCCCC3)[C@@H]4OC(C)=O)[C@@]2(C)C[C@@H]1N1CCCCC1 [Vecuronium Bromide]    105%
O=[N+]([O-])c1cn2c(n1)OC[C@@H](OCc1ccc(OC(F)(F)F)cc1)C2    92.7%

Switching to the query record.
Which cell viability reading was recorded for the compound `CC(=O)OCC1=C[C@@H]2OC(=O)C3=CO[C@@H](O[C@@H]4O[C@H](CO)[C@@H](O)[C@H](O)[C@H]4O)[C@H]1[C@@H]32` ?
85.2%

----------
Task for the reader: assign each of the following compounds its reported cell viability.
System: MOLM14
method.notes: cell viability relative to vehicle control; higher = less cytotoxic
reported.conditions: 10 µM; SRSF2 genotype: SRSF2 P95H/wt
Where a name gives a salt, the structure may show the parent alone.
Give bare numbers, in %.

Recorded results for 2 compounds are shown here.
CC(C)(O)CNc1ncc(-c2ccnc(Nc3ccnc(Cl)c3)n2)c(CC2CC2)n1    8.93
N=C(N)N [Guanidine (Aminoformamidine) HCl]    97

Dear colleague, could you send me cell viability for each of the items below? Thanks.
1. CC1(C)[C@@H](O[C@H]2O[C@H](C(=O)O)[C@@H](O)[C@H](O)[C@H]2O[C@@H]2O[C@H](C(=O)O)[C@@H](O)[C@H](O)[C@H]2O)CC[C@]2(C)[C@H]3C(=O)C=C4[C@@H]5C[C@@](C)(C(=O)O)CC[C@]5(C)CC[C@@]4(C)[C@]3(C)CC[C@@H]12 [Ammonium Glycyrrhizate]
2. CN(C)c1ccc2nc3ccc(=[N+](C)C)cc-3sc2c1

1. 106
2. 5.69

Provide cell viability values for the following items, in order.
1. COc1ccc(S(=O)(=O)Nc2cccnc2Nc2ccc(O)cc2)cc1
2. CN(C)CCCCC(=O)Nc1ccc(NC(=S)NC(=O)c2ccc(C(C)(C)C)cc2)cc1
3. CCC1(c2ccccc2)C(=O)NCNC1=O
4. C[C@@H]1CC[C@@]2(OC1)O[C@H]1C[C@H]3[C@@H]4CC=C5C[C@@H](O[C@@H]6O[C@H](CO)[C@@H](O[C@@H]7O[C@@H](CO)[C@H](O)[C@H]7O)[C@H](O)[C@H]6O[C@@H]6O[C@@H](C)[C@H](O)[C@@H](O)[C@H]6O)CC[C@]5(C)[C@H]4CC[C@]3(C)[C@H]1[C@@H]2C
5. CNc1nc(Nc2cnn(C3CCN(C4COC4)CC3F)c2Cl)ncc1C(F)(F)F (stereo not drawn)

1. 16.8
2. 1.6
3. 102
4. 0.32
5. 38.2

Each compound below has a reported value. Please supply its cell viability.
1. CO/N=C(\C(=O)N[C@@H]1C(=O)N2C(C(=O)OCOC(=O)C(C)(C)C)=C(/C=C\c3scnc3C)CS[C@H]12)c1csc(N)n1
2. O=C(NCCN1CCOCC1)Nc1ccc(C(=O)/C=C/c2cccc(N3CCOCC3)n2)cc1
3. COC(=O)N(C)c1c(N)nc(-c2nn(Cc3ccccc3F)c3ncccc23)nc1N

1: 94.5; 2: 1.13; 3: 90.2
